# Procedure text: Pharmacokinetic parameters in the rat (i.v. and intragastric)
# Assay type: in vivo
# Test parameters: oral bioavailability
Value type: F (%)
Please state the figure in %; there is no need to write the unit.

Structure	Value type	Assay value
CO[C@]1(C(F)(F)F)CC[C@]2(CC1)NC(=O)C(c1cc(-c3ccc(Cl)cc3)ccc1C)=C2O	F	163

Bench note: what F did "COC[C@]1(OC)CC[C@@]2(CC1)NC(=O)C(c1cc(-c3ccc(Cl)c(F)c3)ccc1C)=C2O" show? 83

Okay, and "CO[C@]1(C)CC[C@]2(CC1)NC(=O)C(c1cc(-c3ccc(Cl)c(F)c3)ccc1C)=C2O" ? 71

Okay, and "CO[C@]1(C)CC[C@]2(CC1)NC(=O)C(c1cc(-c3ccc(Cl)cc3)ccc1C)=C2O" ? 83

Okay, and "CO[C@]1(C(F)(F)F)CC[C@]2(CC1)NC(=O)C(c1cc(-c3ccc(Cl)c(F)c3)ccc1C)=C2O" ? 131

Okay, and "COC[C@]1(OC)CC[C@@]2(CC1)NC(=O)C(c1cc(-c3ccc(Cl)cc3)ccc1C)=C2O" ? 68

* * *

# System: H460
# Procedure text: Tumour cell proliferation, CellTiter-Glo, 96 h
# Type: cell-based
# Test parameters: Homo sapiens, NCI-H460; 96-hour incubation
Value type: IC50 (nM)
Please state the figure in nM; there is no need to write the unit.

Study these solved cases before continuing.
Structure	IC50, nM
COC[C@H]1CC[C@]2(CC1)NC(=O)C(c1cc(-c3ccc(Cl)c(F)c3)ccc1C)=C2O	43
COC[C@H]1CC[C@]2(CC1)NC(=O)C(c1cc(-c3ccc(Cl)cc3)ccc1C)=C2O	67
CO[C@]1(C(F)(F)F)CC[C@]2(CC1)NC(=O)C(c1cc(-c3ccc(Cl)c(F)c3)ccc1C)=C2O	104
COC[C@]1(OC)CC[C@@]2(CC1)NC(=O)C(c1cc(-c3ccc(Cl)cc3)ccc1C)=C2O	365
Cc1ccc(-c2ccc(Cl)cc2)cc1C1=C(O)[C@]2(CC[C@](O)(C(F)(F)F)CC2)NC1=O	1870
Cc1ccc(-c2ccc(Cl)c(F)c2)cc1C1=C(O)[C@]2(CC[C@](O)(C(F)(F)F)CC2)NC1=O	2120
CO[C@]1(C(F)(F)F)CC[C@]2(CC1)NC(=O)C(c1cc(-c3ccc(Cl)cc3)ccc1C)=C2O	88

Bench note: what IC50 did "COC[C@]1(OC)CC[C@@]2(CC1)NC(=O)C(c1cc(-c3ccc(Cl)c(F)c3)ccc1C)=C2O" show? 333

* * *

# Procedure text: Membrane affinity logMA (MA-Transil)
# Assay type: physicochemical
# Test parameters: buffer pH 7.4
# Text: Assays for Determining Membrane Affinity logMA and Protein Binding to Human Serum Albumin (HSA): […] To determine binding of an active compound to Transil, the supernatant of the wells with Transil was quantified against the reference solution without Transil via HPLC-MS coupling (HPLC-MS=high performance liquid chromatography/mass spectrometry). […]
Value type: logMA
Output spec: single numeric token, no unit.

Bench note: what logMA did Cc1ccc(-c2ccc(Cl)cc2)cc1C1=C(O)[C@]2(CC[C@](O)(C(F)(F)F)CC2)NC1=O [V.1-c] show? 2.1

Okay, and COC[C@H]1CC[C@]2(CC1)NC(=O)C(c1cc(-c3ccc(Cl)c(F)c3)ccc1C)=C2O [V.4-b] ? 2.13

Okay, and Cc1ccc(-c2ccc(Cl)cc2)cc1C1=C(O)[C@]2(CC[C@H](C(F)(F)F)CC2)NC1=O [V.1-b] ? 2.38

Okay, and Cc1ccc(-c2ccc(Cl)c(F)c2)cc1C1=C(O)[C@]2(CC[C@H](C(F)(F)F)CC2)NC1=O [V.2-b] ? 2.55

Okay, and Cc1ccc(-c2ccc(Cl)c(F)c2)cc1C1=C(O)[C@]2(CC[C@](O)(C(F)(F)F)CC2)NC1=O [V.2-c] ? 2.3

Okay, and CO[C@]1(C)CC[C@]2(CC1)NC(=O)C(c1cc(-c3ccc(Cl)c(F)c3)ccc1C)=C2O [Example V.2-a] ? 1.67

Okay, and COC[C@H]1CC[C@]2(CC1)NC(=O)C(c1cc(-c3ccc(Cl)cc3)ccc1C)=C2O [V.3-b] ? 2.08

Okay, and CO[C@]1(C)CC[C@]2(CC1)NC(=O)C(c1cc(-c3ccc(Cl)cc3)ccc1C)=C2O [Example V.1-a] ? 1.4

* * *

Reported chromatographic logP by item:
# Procedure text: Octanol/water distribution coefficient (logP/D), isocratic HPLC method
# Assay type: physicochemical
# Test parameters: octanol/water, pH 7.4; pH7.4

Study these solved cases before continuing.
Structure	Value type	Assay value
CO[C@]1(C(F)(F)F)CC[C@]2(CC1)NC(=O)C(c1cc(-c3ccc(Cl)cc3)ccc1C)=C2O	chromatographic logP	2.44
COC[C@H]1CC[C@]2(CC1)NC(=O)C(c1cc(-c3ccc(Cl)cc3)ccc1C)=C2O	chromatographic logP	2.5

Bench note: what chromatographic logP did "COC[C@H]1CC[C@]2(CC1)NC(=O)C(c1cc(-c3ccc(Cl)c(F)c3)ccc1C)=C2O" show? 2.57

Okay, and "Cc1ccc(-c2ccc(Cl)cc2)cc1C1=C(O)[C@]2(CC[C@](O)(C(F)(F)F)CC2)NC1=O" ? 1.6

Okay, and "COC[C@]1(OC)CC[C@@]2(CC1)NC(=O)C(c1cc(-c3ccc(Cl)cc3)ccc1C)=C2O" ? 2.3

* * *

# Procedure text: Effective AUC from plasma concentration time profile in the PC3 tumour model
# Type: in vivo, mouse
# Test parameters: nu/nu, plasma, oral; dosage (mouse) 40 mg/kg 2 × per day; read-out: ther. AUC (mouse)
# Description: The human pharmacokinetic (PK) parameters (Table 9) were predicted based on the in vivo PK parameters obtained for rats (single species scaling), taking into account the interspecies differences in the free fraction (fu) in the plasma. The effective AUC (area under curve) was determined based on the measured plasma concentration time profile for in vivo efficacy in the PC3 tumour model of the mouse (nu/nu mouse).
Value type: AUC (ng·h/mL)
Please state the figure in ng·h/mL; there is no need to write the unit.

Bench note: what AUC did "CO[C@]1(C(F)(F)F)CC[C@]2(CC1)NC(=O)C(c1cc(-c3ccc(Cl)c(F)c3)ccc1C)=C2O" show? 66000

* * *

# Procedure text: Pharmacokinetic parameters in the rat (i.v. and intragastric)
# Format: in vivo
# Test parameters: male, plasma, terminal, read-out: t½ (converted)
Value type: half-life (h)
Please state the figure in h; there is no need to write the unit.

Study these solved cases before continuing.
Compound	Assay value
COC[C@]1(OC)CC[C@@]2(CC1)NC(=O)C(c1cc(-c3ccc(Cl)c(F)c3)ccc1C)=C2O [Example 1-4]	51
CO[C@]1(C(F)(F)F)CC[C@]2(CC1)NC(=O)C(c1cc(-c3ccc(Cl)c(F)c3)ccc1C)=C2O [Example 1-2]	65
COC[C@]1(OC)CC[C@@]2(CC1)NC(=O)C(c1cc(-c3ccc(Cl)cc3)ccc1C)=C2O [Example 1-3]	79

Now look at this one.
Bench note: what half-life did CO[C@]1(C(F)(F)F)CC[C@]2(CC1)NC(=O)C(c1cc(-c3ccc(Cl)cc3)ccc1C)=C2O [Example 1-1] show? 103

* * *

# Test system: human PC-3 cells
# Test parameters: 80 mg/kg, administration 2 times per day
# Procedure: Xenograft models in immunosuppressed mice were used to determine the antitumour activity in living organisms. Use was made primarily of a prostate carcinoma model with hormone-independent human PC-3 cells in male nude mice (NMRI-nude (nu/nu) mice, Taconic M&B A/S). […] The T/C value was calculated as primary success parameter using the effect on the final tumour weight: mean tumour weight in the treatment group divided by mean of the tumour weight in the vehicle group. […]
Value type: tolerability (good: body weight change <=minus 10% and 100% survival)

Compound	Assay system	Assay value
COC[C@]1(OC)CC[C@@]2(CC1)NC(=O)C(c1cc(-c3ccc(Cl)c(F)c3)ccc1C)=C2O [Example 1-4]	human PC-3 cells	good tolerability
CO[C@]1(C(F)(F)F)CC[C@]2(CC1)NC(=O)C(c1cc(-c3ccc(Cl)c(F)c3)ccc1C)=C2O [Example 1-2]	human PC-3 cells	good tolerability
CO[C@]1(C(F)(F)F)CC[C@]2(CC1)NC(=O)C(c1cc(-c3ccc(Cl)cc3)ccc1C)=C2O [Example 1-1]	human PC-3 cells	good tolerability

* * *

# Procedure text: Maximum tolerated dose (MTD) in female nude mice
# Assay type: in vivo, mouse
# Test parameters: female, NMRI-nude (nu/nu), mouse, in vivo; 21-day treatment, administration once per day, oral
Reported MTD at 21 days by item:

Compound	MTD at 21 days
CO[C@]1(C(F)(F)F)CC[C@]2(CC1)NC(=O)C(c1cc(-c3ccc(Cl)cc3)ccc1C)=C2O [Example 1-1]	> 100 mg/kg
CO[C@]1(C)CC[C@]2(CC1)NC(=O)C(c1cc(-c3ccc(Cl)c(F)c3)ccc1C)=C2O [Example V.2-a]	> 80 mg/kg
COC[C@]1(OC)CC[C@@]2(CC1)NC(=O)C(c1cc(-c3ccc(Cl)c(F)c3)ccc1C)=C2O [Example 1-4]	> 100 mg/kg

Bench note: what MTD at 21 days did CO[C@]1(C)CC[C@]2(CC1)NC(=O)C(c1cc(-c3ccc(Cl)cc3)ccc1C)=C2O [Example V.1-a] show? > 100 mg/kg
